Field: IFN-γ. Provide a value for each of the substances that follow.
Tested on: human PBMCs
Test: Cytokine production by human PBMCs treated with ODNs, MagPix Multi-Plex
Assay type: cell-based
Details: low-dose ODN 0.1 μM, human PBMC, 24 hrs
Oligonucleotides are written 5' to 3', each unit as a sugar letter and its base; * is a phosphorothioate linkage, no mark a phosphodiester; rarer units and linkages stand in square brackets, end groups in braces. Plain capitals give the bases only. d = 2'-deoxy (DNA); m = 2'-O-methyl
Numbers only, in pg/mL.

Before answering, review these 4 worked examples.
| SUBSTANCE | OUTPUT_UNIT | IFN-γ |
| --- | --- | --- |
| ODN7040C: 5′-CTGCCAAGTTCACCTGCA*C*C*-3′, PO; * = 2′OMe; control lacking CG-dinucleotide sequences (DNA dCdTdGdCdCdAdAdGdTdTdCdAdCdCdTdGdCmAmCmC) | pg/mL | 0.2 |
| ODN150C: 5′-G*G*A*ACAGTTAGTCCATa*G*G*C-3′, PO except * = PS; control lacking CG-dinucleotide sequences (DNA GGAACAGTTAGTCCATGGC; listed as DNA, chemistry not fully specified) | pg/mL | 0.1 |
| ODN150: 5′-G*G*A*ACAGTTCGTCCAT*G*G*C-3′, PO except * = PS; antisense to p65 of NF-kB mRNA; tested clinically for ulcerative colitis (DNA dG*dG*dA*dAdCdAdGdTdTdCdGdTdCdCdAdT*dG*dG*dC) | pg/mL | 0.2 |
| ODN301C: 5′-GTAGCCCCATCACCCAGCAGC-3′, fully PS, GC-containing (DNA dG*dT*dA*dG*dC*dC*dC*dC*dA*dT*dC*dA*dC*dC*dC*dA*dG*dC*dA*dG*dC) | pg/mL | 0 |

The record that follows has no IFN-γ shown yet.
human PBMCs data for ODN302: 5′-GTCGCTCTTCTCCTCCGCCAG-3′, fully PS; scrambled (non-SMAD7 AON) control sequence with two CG sequences (DNA dG*dT*dC*dG*dC*dT*dC*dT*dT*dC*dT*dC*dC*dT*dC*dC*dG*dC*dC*dA*dG) ; its IFN-γ: 1.5

---

System: human PBMCs
Experiment: Cytokine production by human PBMCs treated with ODNs, MagPix Multi-Plex
Type: cell-based
Settings: low-dose ODN 0.1 μM, human PBMC, 24 hrs
Oligonucleotides are written 5' to 3', each unit as a sugar letter and its base; * is a phosphorothioate linkage, no mark a phosphodiester; rarer units and linkages stand in square brackets, end groups in braces. Plain capitals give the bases only. d = 2'-deoxy (DNA); m = 2'-O-methyl
Field: IL-6. Provide a value for each of the substances that follow.
Answers are plain numbers, in fold change.

List reported IL-6 for each of these substances:
1. ODN302: 5′-GTCGCTCTTCTCCTCCGCCAG-3′, fully PS; scrambled (non-SMAD7 AON) control sequence with two CG sequences (DNA dG*dT*dC*dG*dC*dT*dC*dT*dT*dC*dT*dC*dC*dT*dC*dC*dG*dC*dC*dA*dG)
2. ODN150: 5′-G*G*A*ACAGTTCGTCCAT*G*G*C-3′, PO except * = PS; antisense to p65 of NF-kB mRNA; tested clinically for ulcerative colitis (DNA dG*dG*dA*dAdCdAdGdTdTdCdGdTdCdCdAdT*dG*dG*dC)
3. ODN7040C: 5′-CTGCCAAGTTCACCTGCA*C*C*-3′, PO; * = 2′OMe; control lacking CG-dinucleotide sequences (DNA dCdTdGdCdCdAdAdGdTdTdCdAdCdCdTdGdCmAmCmC)
4. ODN150C: 5′-G*G*A*ACAGTTAGTCCATa*G*G*C-3′, PO except * = PS; control lacking CG-dinucleotide sequences (DNA GGAACAGTTAGTCCATGGC; listed as DNA, chemistry not fully specified)
5. ODN301C: 5′-GTAGCCCCATCACCCAGCAGC-3′, fully PS, GC-containing (DNA dG*dT*dA*dG*dC*dC*dC*dC*dA*dT*dC*dA*dC*dC*dC*dA*dG*dC*dA*dG*dC)

19
1.2
1.2
1.2
1.3

---

System: human PBMCs
Assay: Cytokine production by human PBMCs treated with ODNs, MagPix Multi-Plex
Assay type: cell-based
Conditions: high-dose ODN 10 μM, human PBMC, 24 hrs
Oligonucleotides are written 5' to 3', each unit as a sugar letter and its base; * is a phosphorothioate linkage, no mark a phosphodiester; rarer units and linkages stand in square brackets, end groups in braces. Plain capitals give the bases only. d = 2'-deoxy (DNA); m = 2'-O-methyl
Field: IL-10. Provide a value for each of the substances that follow.
Answers are plain numbers, in fold change.

| SUBSTANCE | PROPERTY_NAME | OUTPUT_UNIT | MEASUREMENT |
| --- | --- | --- | --- |
| ODN7040C: 5′-CTGCCAAGTTCACCTGCA*C*C*-3′, PO; * = 2′OMe; control lacking CG-dinucleotide sequences (DNA dCdTdGdCdCdAdAdGdTdTdCdAdCdCdTdGdCmAmCmC) | IL-10 | fold change | 1 |

List reported IL-10 for each of these substances:
1. ODN302: 5′-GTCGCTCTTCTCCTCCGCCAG-3′, fully PS; scrambled (non-SMAD7 AON) control sequence with two CG sequences (DNA dG*dT*dC*dG*dC*dT*dC*dT*dT*dC*dT*dC*dC*dT*dC*dC*dG*dC*dC*dA*dG)
2. ODN150C: 5′-G*G*A*ACAGTTAGTCCATa*G*G*C-3′, PO except * = PS; control lacking CG-dinucleotide sequences (DNA GGAACAGTTAGTCCATGGC; listed as DNA, chemistry not fully specified)
3. ODN150: 5′-G*G*A*ACAGTTCGTCCAT*G*G*C-3′, PO except * = PS; antisense to p65 of NF-kB mRNA; tested clinically for ulcerative colitis (DNA dG*dG*dA*dAdCdAdGdTdTdCdGdTdCdCdAdT*dG*dG*dC)
4. ODN301C: 5′-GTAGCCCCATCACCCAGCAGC-3′, fully PS, GC-containing (DNA dG*dT*dA*dG*dC*dC*dC*dC*dA*dT*dC*dA*dC*dC*dC*dA*dG*dC*dA*dG*dC)

1: 1.5; 2: 1; 3: 1.6; 4: 1

---

Test system: human PBMCs
Assay: Cytokine production by human PBMCs treated with ODNs, MagPix Multi-Plex
Type: cell-based
Conditions: low-dose ODN 0.1 μM, human PBMC, 24 hrs
Oligonucleotides are written 5' to 3', each unit as a sugar letter and its base; * is a phosphorothioate linkage, no mark a phosphodiester; rarer units and linkages stand in square brackets, end groups in braces. Plain capitals give the bases only. d = 2'-deoxy (DNA)
PROPERTY_NAME: IL-12p40 (pg/mL)
Give bare numbers, in pg/mL.

| SUBSTANCE | IL-12p40, pg/mL |
| --- | --- |
| ODN301C: 5′-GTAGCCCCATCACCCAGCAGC-3′, fully PS, GC-containing (DNA dG*dT*dA*dG*dC*dC*dC*dC*dA*dT*dC*dA*dC*dC*dC*dA*dG*dC*dA*dG*dC) | 0 |

The record that follows has no IL-12p40 shown yet.
The recorded IL-12p40 for ODN302: 5′-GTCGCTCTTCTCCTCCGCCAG-3′, fully PS; scrambled (non-SMAD7 AON) control sequence with two CG sequences (DNA dG*dT*dC*dG*dC*dT*dC*dT*dT*dC*dT*dC*dC*dT*dC*dC*dG*dC*dC*dA*dG) is 0.7

---

System: human PBMCs
Test: Cytokine production by human PBMCs treated with ODNs, MagPix Multi-Plex
Assay type: cell-based
Details: high-dose ODN 10 μM, human PBMC, 24 hrs
Oligonucleotides are written 5' to 3', each unit as a sugar letter and its base; * is a phosphorothioate linkage, no mark a phosphodiester; rarer units and linkages stand in square brackets, end groups in braces. Plain capitals give the bases only. d = 2'-deoxy (DNA)
PROPERTY_NAME: TNF-α (fold change)
Give bare numbers, in fold change.

Before answering, review these 2 worked examples.
| SUBSTANCE | PROPERTY_NAME | OUTPUT_UNIT | MEASUREMENT |
| --- | --- | --- | --- |
| ODN301C: 5′-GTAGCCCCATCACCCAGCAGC-3′, fully PS, GC-containing (DNA dG*dT*dA*dG*dC*dC*dC*dC*dA*dT*dC*dA*dC*dC*dC*dA*dG*dC*dA*dG*dC) | TNF-α | fold change | 2.8 |
| ODN150: 5′-G*G*A*ACAGTTCGTCCAT*G*G*C-3′, PO except * = PS; antisense to p65 of NF-kB mRNA; tested clinically for ulcerative colitis (DNA dG*dG*dA*dAdCdAdGdTdTdCdGdTdCdCdAdT*dG*dG*dC) | TNF-α | fold change | 2 |

The record that follows has no TNF-α shown yet.
human PBMCs data for ODN150C: 5′-G*G*A*ACAGTTAGTCCATa*G*G*C-3′, PO except * = PS; control lacking CG-dinucleotide sequences (DNA GGAACAGTTAGTCCATGGC; listed as DNA, chemistry not fully specified) ; its TNF-α: 1.4
